Test system: SW 1573
Assay Protocol: relative viability (nuclei count vs DMSO), 5 days (fraction); higher = more cells survive
Run Parameters: first compound 0.8 µM
# key: entry, value: relative viability

{"columns": ["Molecule", "relative viability"],
 "data": [
  ["Cc1cnc(-c2cnc(NCCNc3ccc(C#N)cn3)nc2-c2ccc(Cl)cc2Cl)[nH]1 + O=C(CCCCCCC(=O)Nc1ccccc1)NO [Vorinostat] (partner 1 µM)", 0.463],
  ["Cc1cnc(-c2cnc(NCCNc3ccc(C#N)cn3)nc2-c2ccc(Cl)cc2Cl)[nH]1 + CC(=O)c1c(C)c2cnc(Nc3ccc(N4CCNCC4)cn3)nc2n(C2CCCC2)c1=O [Palbociclib] (partner 0.5 µM)", 0.368],
  ["O=c1[nH]c2ccccc2n1C1CCN(CCCC(c2ccc(F)cc2)c2ccc(F)cc2)CC1 [Pimozide] + Cc1nc(NC(=O)N2CCC[C@H]2C(N)=O)sc1-c1ccnc(C(C)(C)C(F)(F)F)c1 [Alpelisib] (partner 2 µM)", 0.764]
]}
